The origin of these recorded values is ChEMBL document CHEMBL2434932.

Activity for assorted compounds
MEASURED TARGET: G-protein coupled bile acid receptor 1 (Mus musculus) (UniProt Q80SS6)
Sequence (whole entry): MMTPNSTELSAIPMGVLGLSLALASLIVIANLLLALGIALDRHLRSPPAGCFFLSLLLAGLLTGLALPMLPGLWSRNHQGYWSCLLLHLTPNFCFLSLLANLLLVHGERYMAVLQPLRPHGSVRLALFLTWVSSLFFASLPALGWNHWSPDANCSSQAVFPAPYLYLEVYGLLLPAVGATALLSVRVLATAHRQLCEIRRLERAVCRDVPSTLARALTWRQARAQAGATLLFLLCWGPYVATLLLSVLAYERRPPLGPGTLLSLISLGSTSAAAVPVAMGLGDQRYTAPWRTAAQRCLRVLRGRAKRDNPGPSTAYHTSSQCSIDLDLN
PROTOCOL DETAILS: Agonist activity at mouse TGR5 expressed in HEK293 cells assessed CRE-induced luciferase activity after 5.5 hrs by reporter gene assay relative to control
Type: functional, cell-based
Design: concentration or dose not given beside the values
State just the number; it will be interpreted in %.

Use these answered entries as a reference point.
| COMPOUND | MEASURED TARGET | Activity (%) |
| --- | --- | --- |
| N#CC(NCc1cnccc1-c1ccccc1F)c1cc(C(F)(F)F)cc(C(F)(F)F)c1 (racemic) | G-protein coupled bile acid receptor 1 (Mus musculus) (UniProt Q80SS6) | 121 |
| O=C(c1ccsc1)N(Cc1cnccc1-c1ccccc1F)S(=O)(=O)c1cc(C(F)(F)F)cc(C(F)(F)F)c1 | G-protein coupled bile acid receptor 1 (Mus musculus) (UniProt Q80SS6) | 146 |

For `O=C1COc2nccc(-c3ccccc3F)c2CN1Cc1cc(C(F)(F)F)cc(C(F)(F)F)c1` , what is its reported Activity?
130

Next compound up: `O=S(=O)(NCc1cnccc1-c1c(F)cccc1F)c1cc(C(F)(F)F)cc(C(F)(F)F)c1`
123

Next compound up: CC(c1cc(C(F)(F)F)cc(C(F)(F)F)c1)N(Cc1cnccc1-c1ccccc1)C(=O)c1ccco1 (racemic)
119

Next compound up: CC(NCc1cnccc1-c1ccccc1F)c1cc(C(F)(F)F)cc(C(F)(F)F)c1 (racemic)
117

Next compound up: `O=C(c1cccs1)N(Cc1cc(C(F)(F)F)cc(C(F)(F)F)c1)Cc1cnccc1-c1ccccc1`
127

Next compound up: N#CC(NCc1cnccc1-c1ccccc1)c1cc(C(F)(F)F)cc(C(F)(F)F)c1 (racemic)
120

----------
pEC50 for assorted compounds
MEASURED TARGET: UniProtKB Q80SS6
PROTOCOL DETAILS: Agonist activity at mouse TGR5 expressed in HEK293 cells assessed CRE-induced luciferase activity after 5.5 hrs by reporter gene assay
// pEC50 is dimensionless: -log10 of concentration (M)

Use these answered entries as a reference point.
| COMPOUND | pEC50 |
| --- | --- |
| CC(NCc1cnccc1-c1ccccc1F)c1cc(C(F)(F)F)cc(C(F)(F)F)c1 (racemic) | 5.69 |
| O=S(=O)(NCc1cnccc1-c1c(F)cccc1F)c1cc(C(F)(F)F)cc(C(F)(F)F)c1 | 6.26 |
| O=C(c1ccsc1)N(Cc1cnccc1-c1ccccc1F)S(=O)(=O)c1cc(C(F)(F)F)cc(C(F)(F)F)c1 | 5.96 |
| CC(c1cc(C(F)(F)F)cc(C(F)(F)F)c1)N(Cc1cnccc1-c1ccccc1)C(=O)c1ccco1 (racemic) | 5.93 |
| N#CC(NCc1cnccc1-c1ccccc1F)c1cc(C(F)(F)F)cc(C(F)(F)F)c1 (racemic) | 6.82 |
| O=S(=O)(NCc1cnccc1-c1ccccc1F)c1cc(C(F)(F)F)cc(C(F)(F)F)c1 | 6.09 |

For `O=C(c1ccccc1)N(Cc1cnccc1-c1ccccc1F)S(=O)(=O)c1cc(C(F)(F)F)cc(C(F)(F)F)c1` , what is its reported pEC50?
6.07

Next compound up: N#CC(NCc1cnccc1-c1c(F)cccc1F)c1cc(C(F)(F)F)cc(C(F)(F)F)c1 (racemic)
7.00

Next compound up: N#CC(NCc1cnccc1-c1ccccc1)c1cc(C(F)(F)F)cc(C(F)(F)F)c1 (racemic)
6.43

Next compound up: `O=C(c1ccsc1)N(Cc1cc(C(F)(F)F)cc(C(F)(F)F)c1)Cc1cnccc1-c1ccccc1`
6.64

Next compound up: `O=C(c1ccco1)N(Cc1cnccc1-c1ccccc1F)S(=O)(=O)c1cc(C(F)(F)F)cc(C(F)(F)F)c1`
6.04

Next compound up: `O=C(c1cccs1)N(Cc1cc(C(F)(F)F)cc(C(F)(F)F)c1)Cc1cnccc1-c1ccccc1`
6.52
